Provenance of the data: patent US4988706A

molecular target: muscarinic receptors (rat cerebral cortex); assay: Radio ligand binding: displacement of the muscarinic agonist 3H-Oxotremorine-M (3H-OXO-M); parameters: species or system Hooded Lister rats; details: displacement of 2nM 3H-OXO-M, rat cerebral cortex membranes, 2 mM magnesium chloride, 50 mM tris pH 7.7, 37° C., 30 min
Structures can show the parent of a compound that is named as a salt.
Listing of entries alongside the reported IC50.
OBSERVATION_TYPE: IC50 (nM)

{"columns": ["COMPOUND", "MEASUREMENT"],
 "data": [
  ["FCc1noc(C23CCN(CC2)C3)n1 [Example E5, oxalate salt]", 140],
  ["FCc1noc(C23CCCN(CC2)C3)n1 (racemic) [Example E1, oxalate salt]", 6.9],
  ["Nc1noc(C23CCN(CC2)C3)n1", 32.5],
  ["Nc1noc(C23CCCN(CC2)C3)n1 (racemic) [Example E2]", 11]
]}
